Where do these numbers come from? They come from patent US20050181376A1.

Tested on: human microsomal triglyceride transfer protein mRNA
measurement.protocol: Antisense inhibition of human microsomal triglyceride transfer protein mRNA levels, quantitative real-time PCR; further: test concentration or dose not given here
measurement.conditions: averages from two experiments
Strand notation (5' to 3'): a small letter for the sugar, then the base; units joined by * are phosphorothioate-linked, units joined directly phosphodiester-linked; [ ] holds rarer units or linkages, { } end groups; capitals alone tell only the bases. e = 2'-O-(2-methoxyethyl) (MOE); [5mC] = 5-methylcytosine; d = 2'-deoxy (DNA)
recorded.metric: % INHIB (inhibition of human microsomal triglyceride transfer protein mRNA levels) (%)
Kindly provide the numeric value in % only, without the unit symbol.

query: Look up % INHIB (inhibition of human microsomal triglyceride transfer protein mRNA levels) with human microsomal triglyceride transfer protein mRNA for this substance: 144435 (eG*eA*eT*eA*e[5mC]*d[5mC]*dA*d[5mC]*dA*dA*dG*d[5mC]*dT*dA*dA*eA*e[5mC]*eT*e[5mC]*e[5mC]; antisense) [compound 144435]
result: 0

query: Note, next up: 144443 (eG*eT*eA*eG*e[5mC]*dA*dT*dA*d[5mC]*dT*dG*d[5mC]*dA*dT*dA*eT*eA*e[5mC]*e[5mC]*e[5mC]; antisense) [compound 144443]
result: 51

query: What would you report for 144438 (eG*e[5mC]*eT*eT*e[5mC]*dA*dT*d[5mC]*d[5mC]*dT*dT*dG*dT*d[5mC]*d[5mC]*eA*eT*e[5mC]*eT*eG; antisense) [compound 144438] ?
result: 53

query: Lookup 144421 (eA*eT*eG*eG*e[5mC]*dT*dT*d[5mC]*dT*dA*dA*dT*dG*dA*dG*eT*e[5mC]*eT*eG*eA; antisense) [compound 144421]
result: 13

query: Likewise for 144414 (eG*eA*eT*eT*eA*dG*dA*dT*dG*dA*dA*dG*dG*dA*dG*e[5mC]*eG*eT*eA*eG; antisense) [compound 144414] ?
result: 0

query: What about this substance? 144445 (eG*eA*eT*eT*eT*dG*dA*dG*dA*dG*dA*dG*dG*dT*dA*eT*eA*eA*eG*eT; antisense) [compound 144445]
result: 18

query: Again, but for 144413 (eG*eA*eT*eT*e[5mC]*d[5mC]*dT*d[5mC]*d[5mC]*dA*dT*dA*dG*dT*dA*eA*eG*eG*e[5mC]*e[5mC]; antisense) [compound 144413]
result: 91

query: Would you kindly repeat that for 144447 (eG*eA*eG*e[5mC]*eT*dT*d[5mC]*dA*dT*dA*dT*dA*d[5mC]*dA*dT*eT*eG*eA*eT*e[5mC]; antisense) [compound 144447] ?
result: 70

query: Cool, now 144409 (eT*e[5mC]*eA*eT*eA*dT*dT*dG*dA*d[5mC]*d[5mC]*dA*dG*d[5mC]*dA*eA*eT*e[5mC]*e[5mC]*eT; antisense) [compound 144409]
result: 31

query: And for 144410 (e[5mC]*e[5mC]*eA*eG*eT*dT*dG*dT*dG*dT*dG*dA*d[5mC]*d[5mC]*dT*eT*eT*eA*eA*e[5mC]; antisense) [compound 144410] ?
result: 38

query: Let us now turn to 144437 (eG*eT*eA*e[5mC]*eT*dG*dG*dT*dT*dT*d[5mC]*d[5mC]*dA*dG*dG*e[5mC]*e[5mC]*eA*eG*e[5mC]; antisense) [compound 144437]
result: 32

query: Field entry: 144433 (eA*eT*eT*eA*eA*dG*dG*d[5mC]*dT*dT*d[5mC]*d[5mC]*dA*dG*dT*e[5mC]*e[5mC]*eT*eT*eG; antisense) [compound 144433]
result: 0

query: Lookup 144426 (eG*eA*eG*e[5mC]*eA*dG*dT*dG*dG*dT*dA*dG*d[5mC]*d[5mC]*dA*eG*eG*eT*eG*eG; antisense) [compound 144426]
result: 22

query: 144436 (eG*eA*eG*eG*eA*dG*dT*d[5mC]*d[5mC]*dA*d[5mC]*dT*dG*dT*dG*eA*eT*eG*eT*e[5mC]; antisense) [compound 144436] , same question.
result: 29
